Cited source for all entries: patent US20170298113A1

target.desc: human somatostatin receptor subtype SSTR5 (human) (UniProt P35346)
Sequence (P35346 whole entry): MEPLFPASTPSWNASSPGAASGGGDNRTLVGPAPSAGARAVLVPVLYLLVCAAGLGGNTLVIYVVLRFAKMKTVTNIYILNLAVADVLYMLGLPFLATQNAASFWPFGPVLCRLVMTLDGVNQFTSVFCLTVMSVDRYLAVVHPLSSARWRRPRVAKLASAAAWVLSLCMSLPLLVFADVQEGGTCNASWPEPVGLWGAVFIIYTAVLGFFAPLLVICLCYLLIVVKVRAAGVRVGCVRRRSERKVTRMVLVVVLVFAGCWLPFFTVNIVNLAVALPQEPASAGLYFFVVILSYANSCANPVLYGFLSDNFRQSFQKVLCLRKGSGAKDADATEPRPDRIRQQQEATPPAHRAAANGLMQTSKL
assay.name: FACS, transfected HEK-293 cells; normalised to Compound 1
*1 amine or outer side, *2 acyl side, *3 side chain or, on linkers, in order; H or OH if unused. Bridges are numbered along the chain shown (N, C = ends). Primed or numbered codes have the meaning given here. [ ]: non-standard residue; d: D form. N(2-mercaptoethyl)Gly = O=C(CN(CCS[*:3])[*:1])[*:2]; FITC′ = fluorescein isothiocyanate; Orn = NCCC[C@H](N)C(=O)O; Aib = CC(C)(N)C(=O)O; GABA = NCCCC(=O)O
Examples of binders with documented Binding affinity relative to Compound 1 (% of Compound 1) follow.

XCFWXXTFX (FITC-GABA-DPhe-Cys*-Phe-Trp-DTrp-Orn-Thr-Phe-GlyS2*-NH2 (* = S-S bond; GlyS2 = N-thioethyl glycine; Orn = ornithine; C-terminal amide)) [Compound 3] = 33
{FITC′-GABA}-[dF]CFW[dW]RTF[N(2-mercaptoethyl)Gly]-NH2 (disulfide 2-9) [Compound 15] = 26
{FITC′-GABA}-[dF]CYW[dW]KTF[N(2-mercaptoethyl)Gly]-NH2 (disulfide 2-9) [Compound 4] = 4

Field request: Binding affinity relative to Compound 1 (% of Compound 1) | item: {FITC′-GABA}-[dF]RCF[dW][Orn]TF[N(2-mercaptoethyl)Gly]-NH2 (disulfide 3-9) [Compound 5]
0

Field request: Binding affinity relative to Compound 1 (% of Compound 1) | item: {FITC′-GABA}-[dF]CFW[dW][Aib]TF[N(2-mercaptoethyl)Gly]-NH2 (disulfide 2-9) [Compound 13]
32

Field request: Binding affinity relative to Compound 1 (% of Compound 1) | item: {FITC′-GABA}-[dF]CRFF[dW]KTF[N(2-mercaptoethyl)Gly]-NH2 (disulfide 2-10) [Compound 8]
96

Field request: Binding affinity relative to Compound 1 (% of Compound 1) | item: XXFWXKTFX (FITC-GABA-DPhe-HCys*-Phe-Trp-DTrp-Lys-Thr-Phe-GlyS2*-NH2 (* = S-S bond; HCys = homocysteine; GlyS2 = N-thioethyl glycine; C-terminal amide)) [Compound 11]
144
